Test: probe aDKK1 binding to arrayed compounds – biochemical, biotinylated probe, 635/667 nm fluorescence, primary screen (AID 1099);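 further: score merges 667nm spot fluorescence with signal to noise across triplicate slides; reference of the scale not given here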
Conditions: small-molecule microarray, higher = more signal
METRIC: composite z-score

Fill in the blank: the reported composite z-score of C=CC[C@]1(C(=O)O)N=C(c2ccc(OCCCO)cc2)O[C@H]1c1ccccc1CN=[N+]=[N-] is ____. 0.177

Fill in the blank: the reported composite z-score of Cc1cccc(/C=C/C=O)c1 is ____. -0.101

Fill in the blank: the reported composite z-score of COc1ccc([Si](C)(C)[C@H]2[C@H](CC(=O)N(CCO)Cc3ccccc3)O[C@@]3(C(=O)N(Cc4cccc(N5C(=O)c6cccc7cccc5c67)c4)c4ccccc43)[C@@H]2C)cc1 is ____. -0.534

Fill in the blank: the reported composite z-score of C=CCN1Cc2ccccc2C[C@]2(N=C(c3ccc(OCCCO)cc3)O[C@@H]2c2ccccc2)C1=O is ____. -0.0119

Fill in the blank: the reported composite z-score of C=CCCN(CC#C[C@H]1Oc2ccccc2S(=O)(=O)N2CCC[C@@H]12)S(=O)(=O)c1ccc(C)cc1 is ____. -0.342

---

I'd appreciate it if you could supply composite z-score values for the items below.
Assay: probe aShh binding to arrayed compounds – biochemical, biotinylated probe, 635/667 nm fluorescence, primary screen (AID 1114);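 further: probe is biotin-labelled aShh protein from a stem cell growth factor screen; measures binding of labelled protein to compounds printed on the slide; score merges feature fluorescence at 667 nm with signal-to-noise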
Conditions: small-molecule microarray, higher = more signal

Fill in the blank: the reported composite z-score of CCCCCN1CC=CC23O[C@@H]4C=CCCOC(=O)C4[C@H]2C(=O)N(CCCO)[C@@H]3C1=O (stereo not given in full) is ____. -0.283

Fill in the blank: the reported composite z-score of O=C1C2C=CC(C(O)C3CC=CCC3)N(n3cnnc3)C2C(=O)N1Cc1ccccc1 (stereo not given) is ____. 0.0684

Fill in the blank: the reported composite z-score of O=C1[C@H]2C=C(Br)[C@H](C[C@@H]2OCCOCCO)[C@@]12CO2 is ____. -0.0769

Fill in the blank: the reported composite z-score of C=C(C)[C@@H]1CC=C(C(O)C2C=CC3C(=O)N(Cc4ccccc4)C(=O)C3N2n2cnnc2)CC1 (stereo not given in full) is ____. -0.156

Fill in the blank: the reported composite z-score of CN1C(=O)C2C=CC(C(O)C3=C[C@H]4C[C@@H](C3)C4(C)C)N(Nc3ccc([N+](=O)[O-])cc3[N+](=O)[O-])C2C1=O (stereo not given in full) is ____. 0.223

Fill in the blank: the reported composite z-score of [N-]=[N+]=NCc1ccccc1C[C@@]1(C(=O)NCc2ccccc2)N=C(c2ccc(OCCCO)cc2)O[C@@H]1c1ccccc1CN=[N+]=[N-] is ____. 0.274

Fill in the blank: the reported composite z-score of O=C1OCC=C[C@H]2OC34C=CCN(CCN5CCOCC5)C(=O)[C@H]3N(CCCCCCO)C(=O)[C@@H]4[C@@H]12 (stereo not given in full) is ____. -0.0904

Fill in the blank: the reported composite z-score of CCN(CC)c1ccc(N2CC=CC34O[C@@H]5/C=C\CCCOC(=O)C5[C@H]3C(=O)N(CCCO)[C@@H]4C2=O)cc1 (stereo not given in full) is ____. 0.14

Fill in the blank: the reported composite z-score of CN1C(=O)C2C=CC(C(O)c3ccc(Br)cc3)N(Nc3ccccc3)C2C1=O (stereo not given) is ____. -0.178

Fill in the blank: the reported composite z-score of C=CCOC(=O)[C@H]1[C@@H]2C(=O)O[C@@H](c3ccccc3)[C@@H](c3ccccc3)N2[C@@H](c2ccc(OCCOC(=O)[C@H]3C[C@H]4C(=O)N[C@@H](CCCC[N+](C)(C)C)C(=O)N4[C@H]3c3ccc(O)cc3)cc2)[C@]12C(=O)Nc1ccccc12 is ____. 0.0469

Fill in the blank: the reported composite z-score of C=CC[C@]1(C(=O)NCCN2CCOCC2)N=C(c2ccc(OCCCO)cc2)O[C@H]1c1ccccc1N=[N+]=[N-] is ____. -0.155

Fill in the blank: the reported composite z-score of CC(C)(C)OC(=O)CC[C@@]1(C(N)=O)N=C(c2ccc(OCCCO)cc2)O[C@@H]1c1ccccc1N=[N+]=[N-] is ____. 0.0796

Fill in the blank: the reported composite z-score of CN1C(=O)C2C=CC(C(O)c3ccccc3)N(NC(=O)OC(C)(C)C)C2C1=O (stereo not given) is ____. -0.221

Fill in the blank: the reported composite z-score of C=CCN1C(=O)[C@@]2(O[C@@H](CCO)[C@H]([Si](C)(C)c3ccc(OC)cc3)[C@H]2C)c2cc(N3C(=O)COc4ccccc43)ccc21 is ____. -0.0626

Fill in the blank: the reported composite z-score of C=CC[C@@]1(C(N)=O)N=C(c2ccc(OCCCO)cc2)O[C@@H]1c1ccccc1N=[N+]=[N-] is ____. -0.148

Fill in the blank: the reported composite z-score of CCCCC(=C=CC[C@H](O)c1ccccc1OCCO)C[C@H](O)c1cc(Cl)cc(Cl)c1O is ____. 0.0278

Fill in the blank: the reported composite z-score of CC(C)(C)OC(=O)CC[C@@]1(C(=O)N2CCOCC2)N=C(c2ccc(OCCCO)cc2)O[C@@H]1c1ccccc1N=[N+]=[N-] is ____. 0.558

Fill in the blank: the reported composite z-score of CN1C(=O)C2C=CC(C(O)C(c3ccccc3)c3ccccc3)N(Nc3ccccc3)C2C1=O (stereo not given) is ____. 0.216

Fill in the blank: the reported composite z-score of CC(c1ccccc1)C(O)C1C=CC2C(=O)N(Cc3ccccc3)C(=O)C2N1n1cnnc1 (stereo not given) is ____. 0.297

Fill in the blank: the reported composite z-score of C[N+](C)(C)CCCC[C@@H]1NC(=O)[C@@H]2C[C@H](C(=O)NCCCCCCNC(=O)CS)[C@H](c3cccc(OCCO)c3)N2C1=O is ____. -0.0553
